biological target: Mu-type opioid receptor (Rattus norvegicus, UniProt P33535); assay: Inhibitory concentration against [3H]DAMGO binding to Opioid receptor mu 1 in rat brain membrane; type: cell membranes
Sequence (P33535 whole entry): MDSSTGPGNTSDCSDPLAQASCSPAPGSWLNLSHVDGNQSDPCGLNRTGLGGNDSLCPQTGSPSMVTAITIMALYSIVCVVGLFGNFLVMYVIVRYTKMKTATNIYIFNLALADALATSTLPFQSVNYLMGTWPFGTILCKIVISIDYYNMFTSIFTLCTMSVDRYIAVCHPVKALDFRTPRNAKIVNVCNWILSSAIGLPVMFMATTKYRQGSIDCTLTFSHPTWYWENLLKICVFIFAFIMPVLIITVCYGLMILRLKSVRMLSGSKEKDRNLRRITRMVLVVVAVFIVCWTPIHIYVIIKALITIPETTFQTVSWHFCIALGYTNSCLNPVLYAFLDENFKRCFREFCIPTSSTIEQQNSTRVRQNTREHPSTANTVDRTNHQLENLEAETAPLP
Non-standard residues stand in square brackets, D forms with d. Residues, ends and D or L forms follow the SMILES beside them. β3hF = N[C@H](CC(=O)O)Cc1ccccc1
property label: IC50 (µM)

- compound: "N[C@@H](Cc1ccc(O)cc1)C(=O)N1CCC[C@H]1C(=O)N[C@H](CC(=O)N1CCC[C@H]1C(=O)NCC(=O)O)Cc1ccccc1 (H-YP[β3hF]PG-OH)"
  property label: "IC50"
  units symbol: "µM"
  result number: 2
- compound: "N[C@@H](Cc1ccc(O)cc1)C(=O)N1CCC[C@H]1C(=O)N[C@@H](Cc1ccccc1)C(=O)N1CCC[C@H]1C(=O)NCC(=O)O (H-YPFPG-OH)"
  property label: "IC50"
  units symbol: "µM"
  result number: 4.5
- compound: "CC[C@H](C)[C@H](NC(=O)[C@@H]1CCCN1C(=O)CNC(=O)[C@@H]1CCCN1C(=O)C[C@H](Cc1ccccc1)NC(=O)[C@@H]1CCCN1C(=O)[C@@H](N)Cc1ccc(O)cc1)C(=O)O (H-YP[β3hF]PGPI-OH)"
  property label: "IC50"
  units symbol: "µM"
  result number: 4
- compound: "CC[C@H](C)[C@H](NC(=O)[C@@H]1CCCN1C(=O)CNC(=O)[C@@H]1CCCN1C(=O)[C@H](Cc1ccccc1)NC(=O)[C@@H]1CCCN1C(=O)[C@@H](N)Cc1ccc(O)cc1)C(=O)O (H-YPFPGPI-OH)"
  property label: "IC50"
  units symbol: "µM"
  result number: 20

* * *

Ki, Mu-type opioid receptor (Rattus norvegicus, UniProt P33535), per-entry values.
Non-standard residues stand in square brackets, D forms with d. Residues, ends and D or L forms follow the SMILES beside them. β3hF = N[C@H](CC(=O)O)Cc1ccccc1

- molecule: "CC[C@H](C)[C@H](NC(=O)[C@@H]1CCCN1C(=O)CNC(=O)[C@@H]1CCCN1C(=O)[C@H](Cc1ccccc1)NC(=O)[C@@H]1CCCN1C(=O)[C@@H](N)Cc1ccc(O)cc1)C(=O)O (H-YPFPGPI-OH)"
  Ki / nM: 7540
- molecule: "N[C@@H](Cc1ccc(O)cc1)C(=O)N1CCC[C@H]1C(=O)N[C@@H](Cc1ccccc1)C(=O)N1CCC[C@H]1C(=O)NCC(=O)O (H-YPFPG-OH)"
  Ki / nM: 1620
- molecule: "CC[C@H](C)[C@H](NC(=O)[C@@H]1CCCN1C(=O)CNC(=O)[C@@H]1CCCN1C(=O)C[C@H](Cc1ccccc1)NC(=O)[C@@H]1CCCN1C(=O)[C@@H](N)Cc1ccc(O)cc1)C(=O)O (H-YP[β3hF]PGPI-OH)"
  Ki / nM: 1440
- molecule: "N[C@@H](Cc1ccc(O)cc1)C(=O)N1CCC[C@H]1C(=O)N[C@H](CC(=O)N1CCC[C@H]1C(=O)NCC(=O)O)Cc1ccccc1 (H-YP[β3hF]PG-OH)"
  Ki / nM: 720
